- Tested on: Leishmania donovani promastigotes (LdP)
- run description: MTS-PMS viability assay in Leishmania donovani promastigotes
- Type: cell-based
- condition set: Leishmania donovani, 48 h, endpoint at 48 h, 5 × 10^5 LdP/mL, read-out: IC50 (µM) Mean ± SD LdP
experimental readout: IC50 (µM)
The reply should be a number in µM, with the unit left off.

{"columns": ["molecule", "readout unit", "IC50"],
 "data": [
  ["CC12OOC(C)(c3ccccc31)c1ccccc12", "µM", 4.1],
  ["c1ccc2c(c1)C1OOC2c2ccccc21 [AcEP1117, 9,10-dihydro-9,10-epidioxidoanthracene]", "µM", 2.65],
  ["CCc1ccc2c(c1)C1OOC2c2ccccc21 (centres unmarked)", "µM", 39.5]
]}

Moving on to the next molecule.
Lookup: Need IC50, item CC12OOC(c3ccccc31)c1ccccc12
Found: 4.21

Measured values drawn from paper PMC6100073 for this set.
